target: glucosylceramide synthase (GCS) enzyme in Golgi preparations from human A375 malignant melanoma skin cells (Homo sapiens (Human), UniProt Q16739); assay: UDP-Glo glucosylceramide synthase biochemical assay; conditions: 1.5 μg crude golgi preparation; C6 ceramide and UDP-glucose at 2×Km; 20 h incubation at room temperature; luminescence
Sequence (Q16739 whole entry): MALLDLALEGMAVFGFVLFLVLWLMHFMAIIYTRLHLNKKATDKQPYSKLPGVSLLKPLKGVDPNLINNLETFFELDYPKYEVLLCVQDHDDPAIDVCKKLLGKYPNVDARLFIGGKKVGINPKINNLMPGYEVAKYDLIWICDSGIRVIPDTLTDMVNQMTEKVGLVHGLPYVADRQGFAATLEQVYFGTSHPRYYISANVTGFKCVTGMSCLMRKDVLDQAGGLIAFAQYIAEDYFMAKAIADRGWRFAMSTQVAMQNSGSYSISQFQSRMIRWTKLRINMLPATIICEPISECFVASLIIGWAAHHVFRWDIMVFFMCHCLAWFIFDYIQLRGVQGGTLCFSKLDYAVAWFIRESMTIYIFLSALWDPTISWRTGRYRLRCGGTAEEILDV
measured_property: EC50 (nM)
One number for each entry, in nM.

# count of solved cases: 8
>  <compound>
O=C(N1CCN2CCC1CC2)n1nc(-c2cc(Cl)ccc2F)c2c1COCC2

>  <measured_property>
EC50

>  <quantitative_readout>
3.8

$$$$
>  <compound>
O=C(N1CCN2CCC1CC2)n1nc(-n2cc(Cl)cn2)c2c1COCC2

>  <measured_property>
EC50

>  <quantitative_readout>
10.4

$$$$
>  <compound>
CC1(C)Cc2c(c(-c3ccc(F)cc3)nn2C(=O)N2CCN3CCC2CC3)CO1

>  <measured_property>
EC50

>  <quantitative_readout>
9.8

$$$$
>  <compound>
CC1CCc2c(-c3ccc(F)cc3)nn(C(=O)N3CCN4CCC3CC4)c21 (single isomer, unassigned)

>  <measured_property>
EC50

>  <quantitative_readout>
0.4

$$$$
>  <compound>
O=C(N1CCN2CCC1CC2)n1nc(C2=CCCC2)c2c1CCC2

>  <measured_property>
EC50

>  <quantitative_readout>
3.6

$$$$
>  <compound>
O=C(N1CCN2CCC1CC2)n1nc(-c2ccc(F)cc2)c2c1CCOC2

>  <measured_property>
EC50

>  <quantitative_readout>
4.1

$$$$
>  <compound>
Cc1c(-c2ccc(F)cc2)nn(C(=O)N2CCN3CCC2CC3)c1C

>  <measured_property>
EC50

>  <quantitative_readout>
8.8

$$$$
>  <compound>
COc1c(F)cccc1-c1nn(C(=O)N2CCN3CCC2CC3)c2c1CCC2

>  <measured_property>
EC50

>  <quantitative_readout>
0.6

$$$$

Hi there! I need EC50 for each item below, if you can.
1. O=C(N1CCN2CCC1CC2)n1nc(-c2ccc(F)cc2)c2c1CCC(F)(F)C2
2. COc1nccc(-c2nn(C(=O)N3CCN4CCC3CC4)c3c2CCOC3)c1Cl
3. O=C(N1CCN2CCC1CC2)n1nc(-c2cc(F)c(F)c(F)c2)c2c1CCOC2

1. 8.2
2. 15.3
3. 4.6

Provide the reported EC50 of each entry below, same order.
1. O=C(N1CCN2CCC1CC2)n1nc(-c2ccc(F)cc2)c2c1C1CCC2C1 (centres unmarked)
2. O=C(N1CCN2CCC1CC2)n1nc(-c2ccc(OC(F)F)cc2)c2c1CCC2
3. O=C(N1CCN2CCC1CC2)n1nc(-c2ccc(C(F)(F)F)cc2)c2c1COCC2
4. COc1ncc(-c2nn(C(=O)N3CCN4CCC3CC4)c3c2CCC3)cc1Cl
5. O=C(N1CCN2CCC1CC2)n1nc(-c2ccc(F)cc2)c2c1CC1CC21 (single isomer, unassigned)
6. O=C(N1CCN2CCC1CC2)n1nc(C2=CCC(F)(F)CC2)c2c1COCC2

1: 1.2; 2: 0.3; 3: 2.7; 4: 0.4; 5: 0.1; 6: 38.5
